Data provenance is the supplement of paper PMC7877785.

protocol.summary: self-splicing fitness, log relative to wild type (ln ratio); higher = more splicing; Tetrahymena group I intron in knt gene, E. coli kanamycin selection, DiMSum; sequences stand for … in CUCUCU…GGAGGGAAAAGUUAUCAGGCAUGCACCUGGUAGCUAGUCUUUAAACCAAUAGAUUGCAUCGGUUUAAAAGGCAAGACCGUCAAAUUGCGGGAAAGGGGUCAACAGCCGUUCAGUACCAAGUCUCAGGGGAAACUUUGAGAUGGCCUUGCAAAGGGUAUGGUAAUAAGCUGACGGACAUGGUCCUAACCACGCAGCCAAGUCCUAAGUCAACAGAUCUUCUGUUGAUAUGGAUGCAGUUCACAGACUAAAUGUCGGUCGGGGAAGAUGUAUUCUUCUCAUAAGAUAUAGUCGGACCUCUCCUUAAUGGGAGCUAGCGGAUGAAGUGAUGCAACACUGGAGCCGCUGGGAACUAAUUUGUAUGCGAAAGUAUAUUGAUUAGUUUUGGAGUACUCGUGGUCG;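 note: selection with 25 µg/mL kanamycin versus none on LB agar overnight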
measurement.conditions: 30 °C
Everything with self-splicing fitness (ln) lower than -3 is label 0; everything else, including exactly -3, is label 1.

For orientation, consider the following solved cases.
entry.sequence: CGAGAGCAAUAUUACGCCGG
label.class: label 1

entry.sequence: UGCAAGCAAUAUUACGGGAC
label.class: label 0

entry.sequence: CACGAGCAAUAUUACGUCAU
label.class: label 0

entry.sequence: GAGGAGCAAUAUUACGUCAG
label.class: label 0

Here's the next entry for you.
Req: Has "AAGUAGCAAUAUUACGGUGG" a recorded self-splicing fitness (ln) greater than or equal to -3?
Resp: label 0

----------
protocol.summary: self-splicing fitness, log relative to wild type (ln ratio); higher = more splicing; Tetrahymena group I intron in knt gene, E. coli kanamycin selection, DiMSum; sequences stand for … in CUCUCU…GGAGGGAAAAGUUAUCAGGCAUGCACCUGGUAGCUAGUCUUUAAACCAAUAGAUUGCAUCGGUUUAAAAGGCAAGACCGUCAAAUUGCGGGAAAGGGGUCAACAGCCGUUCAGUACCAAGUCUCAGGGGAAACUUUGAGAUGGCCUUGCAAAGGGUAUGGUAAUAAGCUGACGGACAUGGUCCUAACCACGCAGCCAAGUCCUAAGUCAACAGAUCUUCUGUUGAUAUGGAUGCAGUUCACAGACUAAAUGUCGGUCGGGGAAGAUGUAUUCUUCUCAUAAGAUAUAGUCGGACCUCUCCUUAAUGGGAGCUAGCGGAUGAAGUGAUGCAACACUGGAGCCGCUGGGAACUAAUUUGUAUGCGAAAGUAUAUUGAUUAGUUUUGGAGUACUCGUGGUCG
measurement.conditions: 30 °C
assay.readout: self-splicing fitness (ln)

Value of measured self-splicing fitness (ln) for the entry "UAAUAGCAAUAUUACGCGGU" : -3

Value of measured self-splicing fitness (ln) for the entry "AUGUAGCAAUAUUACGAGUC" : -2.95

Value of measured self-splicing fitness (ln) for the entry "UCAAAGCAAUAUUACGUAUU" : -3.03

Value of measured self-splicing fitness (ln) for the entry "AUCUAGCAAUAUUACGCUGC" : -2.92

Value of measured self-splicing fitness (ln) for the entry "CCUGAGCAAUAUUACGCGUG" : -3.05

----------
protocol.summary: self-splicing fitness, log relative to wild type (ln ratio); higher = more splicing; Tetrahymena group I intron in knt gene, E. coli kanamycin selection, DiMSum; sequences stand for … in CUCUCU…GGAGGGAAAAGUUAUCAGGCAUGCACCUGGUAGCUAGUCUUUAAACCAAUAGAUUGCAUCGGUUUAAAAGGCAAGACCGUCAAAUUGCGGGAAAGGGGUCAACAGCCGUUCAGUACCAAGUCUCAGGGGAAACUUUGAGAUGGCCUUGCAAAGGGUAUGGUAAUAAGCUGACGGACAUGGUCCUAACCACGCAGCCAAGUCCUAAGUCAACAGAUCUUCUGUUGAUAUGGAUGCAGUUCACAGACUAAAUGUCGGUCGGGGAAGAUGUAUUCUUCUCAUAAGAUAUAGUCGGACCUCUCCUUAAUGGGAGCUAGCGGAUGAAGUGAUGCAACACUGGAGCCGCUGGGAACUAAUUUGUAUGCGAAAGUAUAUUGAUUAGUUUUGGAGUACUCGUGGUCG
measurement.conditions: 30 °C
assay.readout: self-splicing fitness (ln)

Below, each entry is followed by its recorded self-splicing fitness (ln) result.
entry.sequence: CAAUAGCAAUAUUACGCUCU
self-splicing fitness (ln): -3.28
--
entry.sequence: GUAAAGCAAUAUUACGGGUU
self-splicing fitness (ln): -1.72

Value of measured self-splicing fitness (ln) for the entry "UCGCAGCAAUAUUACGCACG" : -2.26

Value of measured self-splicing fitness (ln) for the entry "UUGCAGCAAUAUUACGUUUG" : -2.14

Value of measured self-splicing fitness (ln) for the entry "AUUGAGCAAUAUUACGACUA" : -1.2

Value of measured self-splicing fitness (ln) for the entry "CUAUAGCAAUAUUACGGCUA" : -2.95

Value of measured self-splicing fitness (ln) for the entry "UCUUAGCAAUAUUACGUGUG" : -2.13

Value of measured self-splicing fitness (ln) for the entry "CCGGAGCAAUAUUACGGUGG" : -3.8

Value of measured self-splicing fitness (ln) for the entry "ACUCAGCAAUAUUACGCACG" : -1

Value of measured self-splicing fitness (ln) for the entry "GGUCAGCAAUAUUACGAUGU" : -0.0366

Value of measured self-splicing fitness (ln) for the entry "UACUAGCAAUAUUACGAUUG" : -1.88

Value of measured self-splicing fitness (ln) for the entry "GGGGAGCAAUAUUACGUAUC" : -2.03

----------
protocol.summary: self-splicing fitness, log relative to wild type (ln ratio); higher = more splicing; Tetrahymena group I intron in knt gene, E. coli kanamycin selection, DiMSum; sequences stand for … in CUCUCU…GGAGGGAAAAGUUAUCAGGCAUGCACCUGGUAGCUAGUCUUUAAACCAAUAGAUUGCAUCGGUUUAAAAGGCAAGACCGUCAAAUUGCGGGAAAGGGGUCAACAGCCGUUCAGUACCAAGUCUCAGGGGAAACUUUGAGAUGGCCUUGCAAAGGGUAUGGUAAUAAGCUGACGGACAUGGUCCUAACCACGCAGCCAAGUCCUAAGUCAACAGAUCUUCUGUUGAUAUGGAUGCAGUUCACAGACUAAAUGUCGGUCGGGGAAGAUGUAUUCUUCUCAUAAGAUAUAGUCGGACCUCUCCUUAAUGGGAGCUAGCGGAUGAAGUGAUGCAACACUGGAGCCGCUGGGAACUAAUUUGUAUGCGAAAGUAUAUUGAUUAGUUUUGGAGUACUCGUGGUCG
measurement.conditions: 30 °C
assay.readout: self-splicing fitness (ln)

entry.sequence: UCUGAGCAAUAUUACGAUUG
assay.readout: self-splicing fitness (ln)
result: -2.97

entry.sequence: UUAAAGCAAUAUUACGAUCU
assay.readout: self-splicing fitness (ln)
result: -0.857

entry.sequence: UUGUAGCAAUAUUACGCAGA
assay.readout: self-splicing fitness (ln)
result: -2.2

entry.sequence: UUCAAGCAAUAUUACGUUUC
assay.readout: self-splicing fitness (ln)
result: -3.02

entry.sequence: AAUAAGCAAUAUUACGUAUC
assay.readout: self-splicing fitness (ln)
result: -1.6

entry.sequence: CAAAAGCAAUAUUACGGGUA
assay.readout: self-splicing fitness (ln)
result: -2.22

entry.sequence: CGGUAGCAAUAUUACGCGCU
assay.readout: self-splicing fitness (ln)
result: -3.13

entry.sequence: UAUGAGCAAUAUUACGCGAC
assay.readout: self-splicing fitness (ln)
result: -2.82

entry.sequence: GUUUAGCAAUAUUACGGUUC
assay.readout: self-splicing fitness (ln)
result: -1.09

entry.sequence: CUGGAGCAAUAUUACGCUUG
assay.readout: self-splicing fitness (ln)
result: -3.94

Value of measured self-splicing fitness (ln) for the entry "CCUUAGCAAUAUUACGAGGA" : -2.8

Value of measured self-splicing fitness (ln) for the entry "UCCUAGCAAUAUUACGGGUA" : -0.468

Value of measured self-splicing fitness (ln) for the entry "GCGCAGCAAUAUUACGAAGU" : -0.905

Value of measured self-splicing fitness (ln) for the entry "CCCCAGCAAUAUUACGCUCC" : -3.09

Value of measured self-splicing fitness (ln) for the entry "GAAAAGCAAUAUUACGGGCC" : -1.09

Value of measured self-splicing fitness (ln) for the entry "CUUUAGCAAUAUUACGUCUG" : -0.534

Value of measured self-splicing fitness (ln) for the entry "GUAGAGCAAUAUUACGACUC" : 0.512

Value of measured self-splicing fitness (ln) for the entry "UAGGAGCAAUAUUACGUUCA" : -2.05

Value of measured self-splicing fitness (ln) for the entry "UUCCAGCAAUAUUACGGGCG" : -0.245

Value of measured self-splicing fitness (ln) for the entry "AUUAAGCAAUAUUACGGACU" : 0.271

Value of measured self-splicing fitness (ln) for the entry "AGUAAGCAAUAUUACGGGAA" : -2.13
